# SYSTEM_UNDER_TEST: human thrombin (Homo sapiens)
# Construct: Thrombin (human thrombin, 308 NIH units, Sigma); purchased Sigma
# PROTOCOL_NOTES: Enzyme assay for determination of the activity of thrombin inhibitors (chromogenic substrate S-2238)
# Format: biochemical
READOUT: Ki (nM)
Response body: numeric value in nM, unit text excluded.

Ki for Cc1ccc(NS(=O)(=O)Cc2ccc(F)cc2Cl)c(=O)n1CC(=O)NC1CCc2nc(N)sc2C1 (stereo not shown) is 160

###

# SYSTEM_UNDER_TEST: human thrombin (Homo sapiens)
# Construct: Thrombin (human thrombin, 308 NIH units, Sigma); purchased Sigma
# PROTOCOL_NOTES: Enzyme assay for determination of the activity of thrombin inhibitors (chromogenic substrate S-2238)
# Assay type: biochemical
# CONDITIONS_USED: human thrombin 0.5 NIH units/mL, S-2238 40 and 20 μM, HBSA buffer pH 7.5, 25° C.; read-out: Ki thrombin
Measured pKi by item
// pKi here means minus log10 of the molar concentration (mol/L)

Examples with their reported pKi follow.
COMPOUND	pKi
Cc1ccc(NS(=O)(=O)Cc2ccccc2)c(=O)n1CC(=O)NCC1CCc2n[nH]cc2C1 (centres unmarked)	6.68
Cc1ccc(NS(=O)(=O)Cc2ccccc2)c(=O)n1CC(=O)NC1CCc2n[nH]cc2C1 (centres unmarked)	5.33
Cc1ccc(NCCc2ccccc2)c(=O)n1CC(=O)NC1CCc2nc(N)sc2C1 (centres unmarked)	6.16
Cc1ccc(NCCc2ccccc2)c(=O)n1CC(=O)NCC1CCc2n[nH]cc2C1 (centres unmarked)	6.09
Cc1ccc(NS(=O)(=O)Cc2ccccc2)c(=O)n1CC(=O)NC1CCc2nc(N)sc2C1 (centres unmarked)	6.80
CCCCS(=O)(=O)Nc1ccc(C)n(CC(=O)NC2CCc3nc(N)sc3C2)c1=O (centres unmarked)	5.89

Record Cc1ccc(NS(=O)(=O)Cc2cccc(C(F)(F)F)c2)c(=O)n1CC(=O)NC1CCc2nc(N)sc2C1 (centres unmarked) has human thrombin (Homo sapiens) pKi equal to 6.19

Record Cc1ccc(NS(=O)(=O)Cc2ccc(F)cc2Cl)c(=O)n1CC(=O)NCC1CCc2n[nH]cc2C1 (centres unmarked) has human thrombin (Homo sapiens) pKi equal to 6.80

Origin of values: patent US7524871B2
